Recorded Cas9 with SSAP activity (normalized), one value per entry.
tested on: gene editing with Cas9; experiment: Screen of 322 new SSAP proteins, gene editing activity with Cas9 (Table 5); format: cell-based; settings: normalized

{"molecule": "SSAP_89: SEQ ID NO: 258; Pantoea brenneri (protein, listed as Pantoea brenneri) SNQPPIASADLQKTQQSKQVANKTPEQTLVGFMNQPAMKSQLAAALPRHMTADRMIRIVTTEIRKTPQLAQCDQSSFIGAVVQCSQLGLEPGSALGHAYLLPFGNGRSKSGQSNVQLIIGYRGMIDLARRSGQIVSLSARVVRADDEFSFEYGLDENLVHRPGENEDAPITHVYAVARLKDGGTQFEVMTVKQVEKVKAQSKASSNGPWVTHWEEMAKKTVIRRLFKYLPVSIEMQKAVVLDEKAESDVDQDNASVLSAEYSVLESGDEATN", "Cas9 with SSAP activity (normalized)": 0.533}
{"molecule": "SSAP_203: SEQ ID NO: 372; Oenococcus oeni (protein, listed as Oenococcus oeni) SNELKTILNAPTTKEKFDEVLGRNAQGYINSVLNAVGNSKLLQNASPNSILSGAMKAATLNLSIDPNLGYAYFVPYGHEAQLQIGYQGLIQLAQRSGQIKILNAAPIYDEQFKSLDPVTGKLTLNKKIVPDTNKKPTGYVAYLKTVTGFEHTEFMSYADIEKFAKRFSKSFNSSTSPWKTDFNAMAKKTLIKQVLKYAPMSIDLQTAVSADNDDIEPKDITPDEDKETVDKISNLISDNKQDDTLSQLEEVANANN", "Cas9 with SSAP activity (normalized)": "−0.476"}
{"molecule": "SSAP_31: SEQ ID NO: 200 (protein) TTVNQTELKNKLAEKAKTPAKTGNTVFDLIRKMEPEIKRALPKQISPERFARIAMTAVRNTPKLQACEPISFIAALMQSAQLGLEPNTPLGQAYLIPYGKEVQFQLGYQGMLTLAYRTGEYQSIYAMPVYANDEFEYEYGLNEKLVHKPAPDPEGEPIYYYAVYKLKNGGHGFVVMSRQQIERHRDKYSPSAKQGKFSPWNTDFDSMAKKTVLKQLLKYAPKSVEFATQIAQDETIKTEIAEDMTEVQGIEVEYEATDDQENQENQEQED", "Cas9 with SSAP activity (normalized)": "−0.842"}
{"molecule": "SSAP_270: SEQ ID NO: 439; Lactococcus sp. DD01 (protein, listed as Lactococcus sp.) ANLTPTQTVLKSDAAKRKFEEVLGKKTNGFVGSLLSLVGSTNLKNVDSNSVMTAAMKAATLDLPIEPSLGFAYVIPYGREAQFQIGYKGLIQLAIRSGQVTKLNAGPVYENQFIKYDSLFEELEIDFSMPQGVEIAGYFASMELANGFRKIIYWDKEKVTAHGKRFSKSFNRSSSPWQTDFDAMATKTVLKAMLSTYAPLSTEMQQAIVADNESATPKDATPVTDDLVLEAVEDSKQIEENEIINDQVASENYQEPQGEPEVLDLEL", "Cas9 with SSAP activity (normalized)": 0.174}
